study target: Anti-CD28 Fab (SEQ ID NOs: 696, 697)
Sequence (VH, as listed by the source, chain 1 of 2): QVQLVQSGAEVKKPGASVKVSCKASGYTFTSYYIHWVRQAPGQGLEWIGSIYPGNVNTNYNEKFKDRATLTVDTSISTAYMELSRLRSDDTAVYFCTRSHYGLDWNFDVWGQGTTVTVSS
Sequence (VL, as listed by the source, chain 2 of 2): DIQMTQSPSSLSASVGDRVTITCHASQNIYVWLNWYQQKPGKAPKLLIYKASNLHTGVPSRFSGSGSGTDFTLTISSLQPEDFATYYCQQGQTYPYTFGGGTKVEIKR
assay: phage binding ELISA on Fab coated plate; CD28 antigen as competitor
endpoint label: Anti-CD28 Fab signal in the presence of CD28

Param item = YCDGHLPEYITKCL [Phage-1023] ; retrieve measured Anti-CD28 Fab signal in the presence of CD28.
0.06

Then this binder: YCDGHSLEYMVKCL [Phage-1033]
0.06

Then this binder: YCEGHLDQYMTKCL [Phage-1028]
0.08

Then this binder: YCEGHTPVYMPKCL [Phage-1035]
0.06

Then this binder: YCDGHLLEYMSKCL [Phage-1032]
0.09
